Ref: ChEMBL document CHEMBL3608253

- METHOD SUMMARY: Selectivity ratio of IC50 for mouse L929 cells to IC50 for human PC3 cells
- Assay type: ADME, cell-based
- CONDITION NOTES: L929 cells versus PC3 cells, read-out: Ratio IC50
RECORDED ENDPOINT: selectivity ratio
Format: numeric value only, no unit, no commentary.

Check out these entries, answers already filled in.
CC1(C)OC2=C(CC1[Se]c1ccc(Br)cc1)C(=O)C(=O)c1ccccc12 (stereo not drawn); 1.5
CC1(C)OC2=C(CC1Sc1cccc(Cl)c1)C(=O)C(=O)c1ccccc12 (stereo not drawn); 2.2

Query molecule follows.
response.value for CC1(C)OC2=C(CC1[Se]c1ccccc1)C(=O)C(=O)c1ccccc12 (stereo not drawn) (field: selectivity ratio) = 4.5

---

- METHOD SUMMARY: Selectivity ratio of IC50 for chinese hamster V79 cells to IC50 for human PC3 cells
- Assay type: ADME, cell-based
- CONDITION NOTES: V79 cells versus PC3 cells, read-out: Ratio IC50
RECORDED ENDPOINT: selectivity ratio

Use the examples below as a reference point.
CC1(C)OC2=C(CC1Sc1cccc(Cl)c1)C(=O)C(=O)c1ccccc12 (stereo not drawn); 1.9
CC1(C)OC2=C(CC1[Se]c1ccc(Br)cc1)C(=O)C(=O)c1ccccc12 (stereo not drawn); 2.3

Note: attention shifts to another entry.
For record CC1(C)OC2=C(CC1[Se]c1ccccc1)C(=O)C(=O)c1ccccc12 (stereo not drawn) the listed selectivity ratio is 4.6

---

The entries below are paired with their reported selectivity ratio.
- METHOD SUMMARY: Selectivity ratio of IC50 for MDCK cells to IC50 for human HCT8 cells
- Format: ADME, cell-based
- CONDITION NOTES: dog (MDCK), MDCK cells versus HCT8 cells, read-out: Ratio IC50

CC1(C)OC2=C(CC1[Se]c1ccc(Br)cc1)C(=O)C(=O)c1ccccc12 (configuration not stated); 0.8

We now examine a further compound.
What the record says about CCSC1CC2=C(OC1(C)C)c1ccccc1C(=O)C2=O (configuration not stated) : selectivity ratio is 1.4

---

- METHOD SUMMARY: Selectivity ratio of IC50 for human PBMC to IC50 for human OVCAR3 cells
- Assay type: ADME, cell-based, OVCAR-3
- CONDITION NOTES: PBMC versus OVCAR3 cells, read-out: Ratio IC50
RECORDED ENDPOINT: selectivity ratio
Lab note: jot the number down without any unit.

CC1(C)OC2=C(CC1Sc1cccc(Cl)c1)C(=O)C(=O)c1ccccc12 (centres undefined); 2.4

Briefly, selectivity ratio measured for CCSC1CC2=C(OC1(C)C)c1ccccc1C(=O)C2=O (centres undefined) : 1.8

Note to self: selectivity ratio recorded for CC1(C)OC2=C(CC1[Se]c1ccc(Br)cc1)C(=O)C(=O)c1ccccc12 (centres undefined) was 1.6

For this compound ( CC1(C)OC2=C(CC1[Se]c1ccccc1)C(=O)C(=O)c1ccccc12 (centres undefined) ), measured selectivity ratio is 1.5

---

- METHOD SUMMARY: Selectivity ratio of IC50 for MDCK cells to IC50 for human PC3M cells
- Assay type: ADME, cell-based
- CONDITION NOTES: dog (MDCK), MDCK cells versus PC3M cells, read-out: Ratio IC50
RECORDED ENDPOINT: selectivity ratio

CC1(C)OC2=C(CC1[Se]c1ccc(Br)cc1)C(=O)C(=O)c1ccccc12 (configuration not stated); 0.6

The record that follows has no selectivity ratio shown yet.
Lookup result for CC1(C)OC2=C(CC1Sc1cccc(Cl)c1)C(=O)C(=O)c1ccccc12 (configuration not stated) ; measured selectivity ratio: 0.9
